# target_or_test_system: SARS-CoV-2 BA.2 spike trimer variant (SARS-CoV-2 Omicron BA.2, UniProt P0DTC2 16-1213)
# assay_overview: ELISA
Below: a set of entries, each annotated with reported EC50.
Express your answer as a number followed by its unit.

Recorded EC50, per entry:
8-H5-A (antibody, V domains shown) VH: QVTLKESGPGILQSSQTLSLTCSLSGFSLSTSGMGVSWVRQPSGKGLEWLAHIYWDDDKRYTPSLKSRLTISTDSSRKQVFLKITSVDTADTATYYCARRDLHDYDGWFAYWGQGTLVTVSA VL: DIVMTQSQKFMSTAVGDRVSVTCKASQNVGTNVAWYQQKPGQSPKALIYSASFRYSGVPDRFSGSGSGTDFTLTISNVQSEDLAEYFCQQYNSYPLTFGSGTKLEIK    1060 pM
4-N22-A (antibody, V domains shown) VH: QVQLQQPGTELVKPGASVKLSCKASGYTFTNYWMYWVKQRPGQGLDWIGNINPSNGGTNYNEKFKSKATLTVDKSSSTAYMQLSSLTSEDSAVYYCARETGNYWGQGTTLTVSS VL: DILMTQSPSSMSVSLGDTVSISCHASQGISSNIGWLQQKPGKSFKGLIYHGTNLEDGVPSRFSGSGSGADYSLTISSLESEDFADYYCVQYAQFPYTFGGGTKLEIK    750 pM

// next item, EC50 requested
Input line: May I ask what EC50 has been recorded for 6-C19-A-WT (antibody, V domains shown) VH: EVQLQQSGPELVKPGASVKMSCKASGYTFTDYNIHWVKQSHGKSLEWIGYINPNNGGTDYNQKFQGKATLTVDKSSSTAYMELRSLTSEDSAVYYCARGGFYGNYGSYYGMDFWGQGTSVTVSS VL: DIQMTQSPASLSASVGETVTITCRTSENIYSHLAWYQQTQGKSPHLLVYNAKTLAEGVPSRFSGSGSGTQFSLKINSLQPEDFGSYFCQHHYGIPPEFGGGTKLEIK ?
Output line: 360 pM

Reference for the values: patent US20230115257A1
